tested on: HEK-293T; assay: Incucyte cell viability with HEK293T; assay type: toxicity, cell-based; settings: human, 12 h, 10 µM, compound concentration 10 uM, replicate number 2; note: unitless GR value; below 1 slowed growth and below 0 cell loss
Numbered stars: 1 amine (or outer) side, 2 acyl side, 3 side chain; on linkers, the order of the positions; unused ones are H or OH. Bridge positions count the residues as written; N and C are the ends. Square brackets hold non-standard residues; d marks the D form. Peptide text beside a SMILES is read from it. I, II: the chains in the order shown. Hexamethylenediamine = C(CCCN[*:2])CCN[*:1]; Dip = N[C@H](C(=O)O)C(c1ccccc1)c1ccccc1; Chg = N[C@H](C(=O)O)C1CCCCC1; NMeA = CN[C@@H](C)C(=O)O
quantity.kind: Growth Rate
# answer = number (no unit)

The reported Growth Rate of the compound CN1C(=O)c2c(nn(Cc3ccc(-c4cccc(F)n4)cc3)c2Nc2ccccc2)N2C1=N[C@@H]1CCC[C@@H]12.O=P(O)(O)O [LENRISPODUN PHOSPHATE] was 0.71

The reported Growth Rate of the compound CCCCC[C@@](C)(O)/C=C/[C@H]1C(=O)CC(O)C1C/C=C\CCCC(=O)O (stereo partly drawn) was 0.96

The reported Growth Rate of the compound Cc1ccc(C)c(OCCCC(C)(C)C(=O)O[C@@H]2O[C@H](C(=O)O)[C@@H](O)[C@H](O)[C@H]2O)c1 was 0.64

The reported Growth Rate of the compound Fc1ccc(Cl)cc1-c1nc(Nc2ccncc2)c2nccnc2n1 was 0.91

The reported Growth Rate of the compound CN[C@@H](C)C(=O)N[C@H](C(=O)N1CCC[C@H]1C(=O)N[C@H](C(=O)NCCCCCCNC(=O)[C@@H](NC(=O)[C@@H]1CCCN1C(=O)[C@@H](NC(=O)[C@H](C)NC)C1CCCCC1)C(c1ccccc1)c1ccccc1)C(c1ccccc1)c1ccccc1)C1CCCCC1 (I: H-[NMeA][Chg]P[Dip] / II: H-[NMeA][Chg]P[Dip]; linker I:C-II:C via Hexamethylenediamine) was -0.4

The reported Growth Rate of the compound [2H]C([2H])([2H])NC(=O)c1nnc(NC(=O)C2CC2)cc1Nc1cccc(-c2ncn(C)n2)c1OC was 0.56

The reported Growth Rate of the compound Cc1cc2ncnn2cc1Nc1ncc2c(n1)n(C1CCOCC1)c(=O)n2C was 0.76

The reported Growth Rate of the compound CCCc1c(OCCCOc2ccc(OCC(=O)O)cc2)ccc(C(C)=O)c1O was 0.94

----------
system: Fibroblast; assay: Incucyte cell viability with human fibroblast; assay type: toxicity, cell-based; details: 12 h, 10 µM, compound concentration 10 uM, replicate number 1; note: unitless GR value; below 1 slowed growth and below 0 cell loss
quantity.kind: Growth Rate
# answer = number (no unit)

The reported Growth Rate of the compound C/C=C1\C(=O)CC2C3CCC4=CC(=O)CC[C@]4(C)C3CC[C@]12C (stereo partly drawn) was 0.83

The reported Growth Rate of the compound CN(C)CCCN1c2ccccc2Sc2ccc(Cl)cc21.Cl [CHLORPROMAZINE HYDROCHLORIDE] was -0.38

The reported Growth Rate of the compound Cc1ccc(NC(=O)c2ccc(CN3CC[C@H](N(C)C)C3)c(C(F)(F)F)c2)cc1Nc1nccc(-c2cncnc2)n1 was 0.05

The reported Growth Rate of the compound C[C@@H](COCCC(=O)N1CCN(c2ncc(C(F)(F)F)cn2)CC1)Nc1cn[nH]c(=O)c1C(F)(F)F was 0.3

The reported Growth Rate of the compound CCCS(=O)(=O)Nc1ccc(F)c(Nc2ncnc3cnc(-n4cnc(C)c4)nc23)c1F was 0.52

The reported Growth Rate of the compound CC(C)C[C@H](NC(=O)c1cc2ccccc2s1)C(=O)N1CCN(C(=O)[C@H](CO)NS(=O)(=O)c2ccc(Cl)cc2Cl)CC1 was -0.95

The reported Growth Rate of the compound NC(=O)c1ccc2[nH]c(-c3ccc(Oc4ccc(Cl)cc4)cc3)nc2c1 was -1

The reported Growth Rate of the compound Cn1c2ccccc2c2c3c(c4c5ccccc5n(CCC#N)c4c21)CNC3=O was -1

Each recorded value in this set is attributed to ChEMBL document CHEMBL5303304.
